# SYSTEM UNDER TEST: T1, cynomolgus monkey TNF (cynomolgus monkey, UniProt P79337 77-233, limits assumed, biotin label in the ELISA (site not stated))
# T1 construct: also called cynoTNF; cyno TNF
# T1 sequence (P79337 77-233 limits assumed): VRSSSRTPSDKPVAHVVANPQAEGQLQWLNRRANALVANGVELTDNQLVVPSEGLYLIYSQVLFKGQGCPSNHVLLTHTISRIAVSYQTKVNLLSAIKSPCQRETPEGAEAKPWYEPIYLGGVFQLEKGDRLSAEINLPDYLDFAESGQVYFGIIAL
# TEST DESCRIPTION: ELISA; IgG captured on goat anti-human IgG-Fc, serially diluted biotinylated cyno TNF, streptavidin-HRP
ASSAY METRIC: EC50
Answer with the figure and its unit, nothing else.

Answered examples (2):
AE11-5 AM3 (antibody, V domains shown, Full length IgG converted from scFv clone J703M1S3#26; Human IgG1 (hCg1,z,non-a,mut(234,235)) with human kappa; also called J703M1S3#26) VH: EVQLVQSGAEVKKPGSSVKVSCKASGGTFSWYAISWVRQAPGQGLEWMGGITPILGTANYAQKFQGRVTITADESTSTVYMELSSLRSEDTAVYYCARGVYYDPKRADYWGQGTLVTVSS VL: EIVLTQSPDFQSVTPKEKVTITCRASQSIGSRLHWYQQKPDQSPKLLIKHASQSTSGVPSRFSGSGSGTDFTLTINSLEAEDAATYYCHQSGSSPPRTFGQGTKVEIK :: 1.55 nM
AE11-5 AM1 (antibody, V domains shown, Full length IgG converted from scFv clone J703M1S3#2; Heavy chain plasmid is pHybE-hCg1,z,non-a,mut(234,235), i.e. human IgG1 with mutations at 234 and 235; Light chain plasmid is pHybE-hCk, i.e. human kappa; also called J703M1S3#2) VH: EVQLVQSGAEVKKPGSSVKVSCKASGGTFSWYATSWVRQAPGQGLEWMGGITPILGSPIYAQKFQGRVTITADESTSTVYMELSSLRSEDTAVYYCARGVYYDHRRADYWGQGTLVTVSS VL: EIVLTQSPDFQSVTPKEKVTITCRASQSIGNTLHWYQQKPDQSPKLLIKHVSQSVSGVPSRFSGSGSGTDFTLTINSLEAEDAATYYCHQKVSSPSPTFGQGTKVEIK :: 2.14 nM

Prompt: Complete the entry with EC50 for AE11-5 AM8 (antibody, V domains shown, Full length IgG converted from scFv clone J703M1S3#38; Human IgG1 (hCg1,z,non-a,mut(234,235)) with human kappa; also called J703M1S3#38) VH: EVQLVQSGAEVKKPGSSVKVSCKASGGTFSWYAISWVRQAPGQGLEWMGGITPILGTPIYAQKFQGRVTITADESTSTVYMELSSLRSEDTAVYYCARGVYYDFKRADYWGQGTLVTVSS VL: EIVLTQSPDFQSVTPKEKVTITCRASQTIGSSLHWYQQKPDQSPKLLIKHASQSISGVPSRFSGSGSGTDFTLTINSLEAEDAATYYCHQSSSSPPPTFGQGTKVEIK
Response: 58.6 nM
